Tested on: E. coli OC2605
assay_notes: MIC, microdilution broth method (NCCLS)
Format: cell-based
test_parameters: A: E. coli OC2605, 35° C., 16-20 hours
Consider the following compounds and their measured MIC readings.

Here are 5 compounds together with their reported answers.
CCC1OC(=O)C(C)(F)C(=O)C(C)C(OC2OC(C)CC(N(C)C)C2O)C(C)(OC(=O)NCc2ccc(-c3ncccn3)cc2)CC(C)C(=NO)C(C)C2NC(=O)OC12C (stereo not drawn)
>16 µg/mL
CC[C@H]1OC(=O)[C@H](C)C(=O)[C@H](C)[C@@H](O[C@@H]2O[C@H](C)C[C@H](N(C)C)[C@H]2O)[C@](C)(OC(=O)N(CC#Cc2ccccc2)CC#Cc2ccccc2)C[C@@H](C)C(=O)[C@H](C)[C@H]2NC(=O)O[C@@]21C
>16 µg/mL
CCC1OC(=O)C(C)C(=O)C(C)C(OC2OC(C)CC(N(C)C)C2O)C(C)(OC(=O)NCC=Cc2ccc(-c3cccnn3)cc2)CC(C)C(=O)C(C)C2NC(=O)OC12C (stereo not drawn)
4 µg/mL
CC[C@H]1OC(=O)[C@H](C)C(=O)[C@H](C)[C@@H](O[C@@H]2O[C@H](C)C[C@H](N(C)C)[C@H]2O)[C@](C)(OC(=O)N(C)C/C=C/c2ccc(-c3ncccn3)cc2)C[C@@H](C)C(=O)[C@H](C)[C@H]2NC(=O)O[C@@]21C
>16 µg/mL
CC[C@H]1OC(=O)[C@H](C)C(=O)[C@H](C)[C@@H](O[C@@H]2O[C@H](C)C[C@H](N(C)C)[C@H]2O)[C@](C)(OC(=O)NCCCc2ccccc2)C[C@@H](C)C(=O)[C@H](C)[C@H]2NC(=O)O[C@@]21C
16 µg/mL

What value of MIC has been recorded for this entry: "CC[C@H]1OC(=O)[C@H](C)C(=O)[C@H](C)[C@@H](O[C@@H]2O[C@H](C)C[C@H](N(C)C)[C@H]2O)[C@](C)(OC(=O)NCCCc2ccncc2)C[C@@H](C)C(=O)[C@H](C)[C@H]2NC(=O)O[C@@]21C"
16 µg/mL

What value of MIC has been recorded for this entry: CCC1OC(=O)C(C)(F)C(=O)C(C)C(OC2OC(C)CC(N(C)C)C2O)C(C)(OC(=O)NCC=Cc2ccc(-c3cccnn3)cc2)CC(C)C(=NO)C(C)C2NC(=O)OC12C (stereo not drawn)
16 µg/mL

What value of MIC has been recorded for this entry: "CC[C@H]1OC(=O)[C@H](C)C(=O)[C@H](C)[C@@H](O[C@@H]2O[C@H](C)C[C@H](N(C)C)[C@H]2O)[C@](C)(OC(=O)NC/C=C/C=C/c2cccc(-n3cncn3)n2)C[C@@H](C)C(=O)[C@H](C)[C@H]2NC(=O)O[C@@]21C"
16 µg/mL

What value of MIC has been recorded for this entry: "CC[C@H]1OC(=O)[C@H](C)C(=O)[C@H](C)[C@@H](O[C@@H]2O[C@H](C)C[C@H](N(C)C)[C@H]2O)[C@](C)(OC(=O)NC/C=C/c2cccc(-n3cncn3)n2)C[C@@H](C)C(=O)[C@H](C)[C@H]2NC(=O)O[C@@]21C"
>16 µg/mL

###

Test system: H. influenzae ATCC49247
assay_notes: MIC, microdilution broth method (NCCLS)
Format: cell-based
test_parameters: E: H. influenzae ATCC49247, 35° C., 16-20 hours
recorded_endpoint: MIC (µg/mL)
# value in µg/mL; strip the unit string

Here are 4 compounds together with their reported answers.
CC[C@H]1OC(=O)[C@H](C)C(=O)[C@H](C)[C@@H](O[C@@H]2O[C@H](C)C[C@H](N(C)C)[C@H]2O)[C@](C)(OC(=O)NCC#Cc2cnc3ccccc3c2)C[C@@H](C)C(=O)[C@H](C)[C@H]2NC(=O)O[C@@]21C
2
CC[C@H]1OC(=O)[C@H](C)C(=O)[C@H](C)[C@@H](O[C@@H]2O[C@H](C)C[C@H](N(C)C)[C@H]2O)[C@](C)(OC(=O)NC/C=C/c2ccc(Oc3ncccn3)cc2)C[C@@H](C)C(=O)[C@H](C)[C@H]2NC(=O)O[C@@]21C
8
CCC1OC(=O)C(C)(F)C(=O)C(C)C(OC2OC(C)CC(N(C)C)C2O)C(C)(OC(=O)NCC=Cc2cn(-c3ncccn3)cn2)CC(C)C(=NO)C(C)C2NC(=O)OC12C (centres unmarked)
4
CC[C@H]1OC(=O)[C@H](C)C(=O)[C@H](C)[C@@H](O[C@@H]2O[C@H](C)C[C@H](N(C)C)[C@H]2O)[C@](C)(OC(=O)NC/C=C/c2cnn(-c3ccccc3)c2)C[C@@H](C)C(=O)[C@H](C)[C@H]2NC(=O)O[C@@]21C
4

Value wanted: MIC (H. influenzae ATCC49247) of entry "CC[C@H]1OC(=O)[C@H](C)C(=O)[C@H](C)[C@@H](O[C@@H]2O[C@H](C)C[C@H](N(C)C)[C@H]2O)[C@](C)(OC(=O)NC/C=C/c2ccc(-n3cncn3)cc2)C[C@@H](C)C(=O)[C@H](C)[C@H]2NC(=O)O[C@@]21C"
4

Value wanted: MIC (H. influenzae ATCC49247) of entry "CC[C@H]1OC(=O)[C@H](C)C(=O)[C@H](C)[C@@H](O[C@@H]2O[C@H](C)C[C@H](N(C)C)[C@H]2O)[C@](C)(OC(=O)NC/C=C/c2ccc([N+](=O)[O-])cc2)C[C@@H](C)C(=O)[C@H](C)[C@H]2NC(=O)O[C@@]21C"
2

Value wanted: MIC (H. influenzae ATCC49247) of entry "CC[C@H]1OC(=O)[C@H](C)C(=O)[C@H](C)[C@@H](O[C@@H]2O[C@H](C)C[C@H](N(C)C)[C@H]2O)[C@](C)(OC(=O)NC/C=C/c2ccc(-c3ccncc3)cc2)C[C@@H](C)C(=O)[C@H](C)[C@H]2NC(=O)O[C@@]21C"
2

###

Test system: H. influenzae ATCC49247
assay_notes: MIC, microdilution broth method (NCCLS)
Format: cell-based
test_parameters: E: H. influenzae ATCC49247, 35° C., 16-20 hours
Method: Minimal inhibitory concentration (MIC) has been an indicator of in vitro antibacterial activity widely used in the art. The in vitro antimicrobial activity of the compounds was determined by the microdilution broth method following the test method from the National Committee for Clinical Laboratory Standards (NCCLS). […] Following inoculation of the microdilution trays, the trays are incubated at 35° C. for 16-20 hours and then read. […]
Consider the following molecules and their measured MIC readings.
# value in µg/mL; strip the unit string

What value of MIC has been recorded for this entry: "CC[C@H]1OC(=O)[C@H](C)C(=O)[C@H](C)[C@@H](O[C@@H]2O[C@H](C)C[C@H](N(C)C)[C@H]2O)[C@](C)(OC(=O)NC/C=C/c2ccc(-c3cccnc3)cc2)C[C@@H](C)C(=O)[C@H](C)[C@H]2NC(=O)O[C@@]21C"
2

What value of MIC has been recorded for this entry: CCC1OC(=O)C(C)(F)C(=O)C(C)C(OC2OC(C)CC(N(C)C)C2O)C(C)(OC(=O)NCC=Cc2ccc(-c3ncccn3)cc2)CC(C)C(=NO)C(C)C2NC(=O)OC12C (centres unmarked)
4

What value of MIC has been recorded for this entry: "CC[C@H]1OC(=O)[C@H](C)C(=O)[C@H](C)[C@@H](O[C@@H]2O[C@H](C)C[C@H](N(C)C)[C@H]2O)[C@](C)(OC(=O)N2CCC(c3ccccc3)CC2)C[C@@H](C)C(=O)[C@H](C)[C@H]2NC(=O)O[C@@]21C"
8

What value of MIC has been recorded for this entry: CCC1OC(=O)C(C)(F)C(=O)C(C)C(OC2OC(C)CC(N(C)C)C2O)C(C)(OC(=O)NCC=Cc2ccc(-c3cccnn3)cc2)CC(C)C(=NO)C(C)C2NC(=O)OC12C (centres unmarked)
2

What value of MIC has been recorded for this entry: "CC[C@H]1OC(=O)[C@H](C)C(=O)[C@H](C)[C@@H](O[C@@H]2O[C@H](C)C[C@H](N(C)C)[C@H]2O)[C@](C)(OC(=O)NC/C(C)=C/c2ccccc2)C[C@@H](C)C(=O)[C@H](C)[C@H]2NC(=O)O[C@@]21C"
4

What value of MIC has been recorded for this entry: "CC[C@H]1OC(=O)[C@H](C)C(=O)[C@H](C)[C@@H](O[C@@H]2O[C@H](C)C[C@H](N(C)C)[C@H]2O)[C@](C)(OC(=O)NCc2ccc(-c3ccncn3)cc2)C[C@@H](C)C(=O)[C@H](C)[C@H]2NC(=O)O[C@@]21C"
2

What value of MIC has been recorded for this entry: "CC[C@H]1OC(=O)[C@H](C)C(=O)[C@H](C)[C@@H](O[C@@H]2O[C@H](C)C[C@H](N(C)C)[C@H]2O)[C@](C)(OC(=O)NC/C=C/c2cccc(-n3cccn3)n2)C[C@@H](C)C(=O)[C@H](C)[C@H]2NC(=O)O[C@@]21C"
4
